// reported EC50 for each item listed
- measured-target: hα7-wt nAChR (Homo sapiens)
- Construct: expressed in transfected cells
- Sequence (P36544 23-502): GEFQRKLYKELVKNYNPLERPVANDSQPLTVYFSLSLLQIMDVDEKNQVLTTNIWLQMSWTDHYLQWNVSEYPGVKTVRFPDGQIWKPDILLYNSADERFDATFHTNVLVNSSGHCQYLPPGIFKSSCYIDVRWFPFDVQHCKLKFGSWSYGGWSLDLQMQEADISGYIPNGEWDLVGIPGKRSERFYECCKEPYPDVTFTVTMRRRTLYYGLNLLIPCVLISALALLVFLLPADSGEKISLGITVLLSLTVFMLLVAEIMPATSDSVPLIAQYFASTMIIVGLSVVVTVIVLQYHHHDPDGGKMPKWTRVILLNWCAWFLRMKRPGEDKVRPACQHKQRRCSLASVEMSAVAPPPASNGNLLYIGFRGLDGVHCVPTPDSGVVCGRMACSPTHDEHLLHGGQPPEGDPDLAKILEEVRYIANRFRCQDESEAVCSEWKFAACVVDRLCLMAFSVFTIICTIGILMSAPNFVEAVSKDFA
- assay-overview: Ca2+ flux imaging (FDSS) (Protocol B), PAM activity with choline as agonist
- Assay type: cell-based
- experimental-parameters: "<5" = no top plateau at maximal concentration
- Description: […] PAM activity was detected in real time by applying the compounds to be tested to the loaded cells along with a α7 nicotinic receptor agonist during constant monitoring of cellular fluorescence in a FDSS. […] A control response to choline was calculated on each plate from the difference in peak in fluorescence in wells receiving either choline or assay buffer alone. […]
Form entry: value (nM) — number only.

Before answering, review these 5 worked examples.
compound | metric-name | reported
CCNC(=O)Cn1nc(Nc2cc(F)c(F)c(F)c2)nc1-c1ccnc(NCC)c1 [Compound 180] | EC50 | 158
O=C(Cn1nc(Nc2ccc(F)c(C(F)(F)F)c2)nc1-c1ccnc(CO)c1)NC1CC1 [Compound 61] | EC50 | 5010
Cc1cc(-c2nc(Nc3ccc(F)c(F)c3)nn2CCC(=O)N(C)C)ccn1 [Compound 185] | EC50 | 1000
CCOC(=O)NCCn1nc(Nc2ccc(F)c(C(F)(F)F)c2)nc1-c1ccnc(C2CC2)c1 [Compound 140] | EC50 | 631
OCCn1nc(Nc2ccc(F)cc2)nc1-c1ccc(C2CC2)nc1 [Compound 171] | EC50 | 2510

Please report the measured EC50 for Cc1cc(-c2nc(Nc3ccc4c(c3)OC(F)(F)O4)nn2CCC(=O)N(C)C)ccn1 [Compound 45] 631

Please report the measured EC50 for OCCn1nc(Nc2cc(Cl)ccc2Cl)nc1-c1ccncc1 [Compound 14] 5010

Please report the measured EC50 for CCNc1ccc(-c2nc(Nc3ccc(F)c(C(F)(F)F)c3)nn2CCC(=O)N(C)C)cn1 [Compound 130] 100

Please report the measured EC50 for CN(C)C(=O)CCn1nc(Nc2ccc(F)c(C(F)(F)F)c2)nc1-c1ccnc(CN)c1 [Compound 60] 3980

Please report the measured EC50 for CCNC(=O)Cn1nc(Nc2cc(F)c(F)c(NCC)c2)nc1-c1ccnc(NCC)c1 [Compound 181] 794

Please report the measured EC50 for CN(C)C(=O)CCn1nc(N2CCc3ccc(C(F)(F)F)cc32)nc1-c1ccc2c(c1)OCCO2 [Compound 211] 1000

Taken from patent US8143419B2.
